Data origin, for the record: patent US20100204224A1

Target: human Nav1.8 (hNav1.8) ion channel (Homo sapiens)
Construct: expressed in transfected cells
Sequence (Q9Y5Y9 whole entry): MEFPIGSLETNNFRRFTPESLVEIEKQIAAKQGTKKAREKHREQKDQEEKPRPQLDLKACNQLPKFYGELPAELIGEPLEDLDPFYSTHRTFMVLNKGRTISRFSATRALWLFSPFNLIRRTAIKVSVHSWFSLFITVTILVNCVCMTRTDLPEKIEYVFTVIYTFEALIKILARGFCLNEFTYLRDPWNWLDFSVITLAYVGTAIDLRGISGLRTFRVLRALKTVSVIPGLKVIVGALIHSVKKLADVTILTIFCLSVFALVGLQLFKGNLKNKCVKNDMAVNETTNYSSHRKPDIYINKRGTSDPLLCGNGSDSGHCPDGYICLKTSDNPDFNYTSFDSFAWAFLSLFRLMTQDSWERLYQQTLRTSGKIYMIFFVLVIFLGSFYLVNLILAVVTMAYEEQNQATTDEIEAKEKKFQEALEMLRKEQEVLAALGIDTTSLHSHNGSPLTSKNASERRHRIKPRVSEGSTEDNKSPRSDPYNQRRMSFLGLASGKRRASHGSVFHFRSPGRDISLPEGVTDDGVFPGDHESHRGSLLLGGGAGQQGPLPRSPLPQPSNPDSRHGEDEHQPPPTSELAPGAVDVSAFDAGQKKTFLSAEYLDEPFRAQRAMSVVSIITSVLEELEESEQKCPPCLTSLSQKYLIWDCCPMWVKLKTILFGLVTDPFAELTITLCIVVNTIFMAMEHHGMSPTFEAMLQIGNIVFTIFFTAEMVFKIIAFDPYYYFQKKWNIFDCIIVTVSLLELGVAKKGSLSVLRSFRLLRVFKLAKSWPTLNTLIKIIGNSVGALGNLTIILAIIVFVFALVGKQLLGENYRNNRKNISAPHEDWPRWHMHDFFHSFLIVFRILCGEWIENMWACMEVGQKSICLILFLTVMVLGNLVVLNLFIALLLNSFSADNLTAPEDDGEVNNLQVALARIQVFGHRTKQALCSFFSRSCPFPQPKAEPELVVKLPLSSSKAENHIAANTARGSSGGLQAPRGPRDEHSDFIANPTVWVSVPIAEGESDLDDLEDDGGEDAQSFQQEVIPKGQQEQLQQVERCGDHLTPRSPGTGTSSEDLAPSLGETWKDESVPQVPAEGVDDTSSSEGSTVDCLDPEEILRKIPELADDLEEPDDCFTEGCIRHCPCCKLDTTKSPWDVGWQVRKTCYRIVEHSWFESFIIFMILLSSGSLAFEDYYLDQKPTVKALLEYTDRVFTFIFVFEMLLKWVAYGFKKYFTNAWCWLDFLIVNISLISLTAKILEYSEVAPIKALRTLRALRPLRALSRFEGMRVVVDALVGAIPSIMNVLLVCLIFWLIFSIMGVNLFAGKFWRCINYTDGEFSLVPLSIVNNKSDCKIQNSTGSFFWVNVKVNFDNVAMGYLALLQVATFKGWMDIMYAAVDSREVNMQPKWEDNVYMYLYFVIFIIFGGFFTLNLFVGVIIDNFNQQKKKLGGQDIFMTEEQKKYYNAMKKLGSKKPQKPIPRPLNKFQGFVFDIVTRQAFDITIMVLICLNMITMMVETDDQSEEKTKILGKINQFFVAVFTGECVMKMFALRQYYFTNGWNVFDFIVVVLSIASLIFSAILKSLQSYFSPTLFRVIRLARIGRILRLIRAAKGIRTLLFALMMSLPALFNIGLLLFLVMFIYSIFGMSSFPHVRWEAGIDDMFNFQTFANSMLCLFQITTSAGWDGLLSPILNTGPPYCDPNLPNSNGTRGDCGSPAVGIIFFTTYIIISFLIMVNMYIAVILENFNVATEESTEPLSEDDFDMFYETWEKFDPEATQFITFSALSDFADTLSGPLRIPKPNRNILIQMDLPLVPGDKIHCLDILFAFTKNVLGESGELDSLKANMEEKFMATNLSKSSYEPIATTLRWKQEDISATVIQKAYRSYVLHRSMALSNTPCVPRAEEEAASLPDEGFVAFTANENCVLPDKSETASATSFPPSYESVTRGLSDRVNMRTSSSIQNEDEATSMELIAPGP
Experiment: Inhibition of human Nav1.8 stably expressed in SH-SY-5Y cells (membrane potential dye fluorescence assay)
Assay type: cell-based
Details: SH-SY-5Y hNav1.8 cells; FLIPR membrane potential dye; 10 μM pyrethroid, 250 nM TTX; test concentration range 100 μM-0.05 μM; read-out: hNav1.8 IC50
pIC50: −log10 of the molar value.
Classify as follows. Reported pIC50 greater than or equal to 6: y. Reported pIC50 below: n.

Ask | # check: pIC50 of Cc1ccccc1C(C)N1CC2CC1CN2C(=O)Nc1ccc(OCCN2CCCC2)cc1 (stereo not drawn) [Example 41] is greater than or equal to 6
Reply | n

Ask | # check: pIC50 of CC(c1ccccc1Cl)N1CC2CC1CN2C(=O)Nc1ccc(Oc2ccc(F)cc2)cc1 (single isomer, unassigned) [Example 76] is greater than or equal to 6
Reply | y

Ask | # check: pIC50 of CCCCOc1ccc(NC(=O)N2CC3CC2CN3C(C)c2ccccc2C)cc1 (stereo not drawn) [Example 5] is greater than or equal to 6
Reply | y

Ask | # check: pIC50 of CC(c1c(F)cccc1Cl)N1CC2CC1CN2C(=O)c1ccc(Oc2ccc(F)cc2)cc1 (stereo not drawn) [Example 167] is greater than or equal to 6
Reply | n

Ask | # check: pIC50 of O=C(c1ccc(C(F)(F)F)cc1)N1CC2CC1CN2C1CCc2ccc(F)cc2C1 (stereo not drawn) [Example 138] is greater than or equal to 6
Reply | n

* * *

Target: human Nav1.8 (hNav1.8) ion channel (Homo sapiens)
Construct: expressed in transfected cells
Assay: Inhibition of human Nav1.8 stably expressed in SH-SY-5Y cells (membrane potential dye fluorescence assay)
Type: cell-based
Conditions: SH-SY-5Y hNav1.8 cells; FLIPR membrane potential dye; 10 μM pyrethroid, 250 nM TTX; test concentration range 100 μM-0.05 μM; read-out: hNav1.8 IC50
Assay Readout: pIC50
Note on pIC50: it is the negative log10 of concentration, concentration in mol/L.

Ask | Can you share its pIC50? I mean this compound: CC(Cc1ccc(Cl)cc1Cl)N1CC2CC1CN2C(=O)Nc1ccc(C(F)(F)F)cc1 (centres unmarked)
Reply | 5.97

Ask | Can you share its pIC50? I mean this compound: CC(c1ccccc1Cl)N1CC2CC1CN2C(=O)c1ccc(Oc2ccc(F)cc2)cc1 (centres unmarked) [Example 151]
Reply | 5.95

Ask | Can you share its pIC50? I mean this compound: CC(c1ccccc1Cl)N1CC2CC1CN2C(=O)c1ccc(Oc2cccc(C#N)c2)cc1 (centres unmarked) [Example 174]
Reply | 5.85

Ask | Can you share its pIC50? I mean this compound: O=C(Nc1ccc(C(F)(F)F)cc1)N1CC2CC1CN2C1CCc2cc(F)ccc21 (centres unmarked) [Example 95]
Reply | 5.97

Ask | Can you share its pIC50? I mean this compound: Cc1ccccc1C(C)N1CC2CC1CN2C(=O)Nc1ccc(OC2CCCC2)cc1 (centres unmarked)
Reply | 6.05
